- Test system: HCT-15
- experiment summary: NCI tumour cell line growth inhibition, 48 h
Reported GI50 values for a set of molecules

Field: example entries. Status: answers known.
FC(F)(F)c1nc2ccc3[nH]c4c(-c5ccccc5)nccc4c3c2[nH]1    > 100 µM
CCCCCCOc1ccc(C(=O)N(C)O)cc1    4.41 µM
CCC(C)(O)c1cn(-c2ccc(Cl)cc2)nn1 (stereo unspecified)    > 100 µM
CCCCSC1=N/C(=C\c2ccc(N(C)C)cc2)C(NN)=N1    > 100 µM
N/N=c1/nc2n(c3ncccc13)C=CNN2    > 100 µM

# input for lookup
Q. Given the molecule CCOP(=O)(OCC)C(Cc1cn(S(=O)(=O)c2ccc(C)cc2)cn1)C(=O)O (stereo unspecified) , what is its reported GI50?
A. > 100 µM
